- assay text: NCI Yeast Anticancer Drug Screen. Data for the mlh1 rad18 strain (AID 175)
- condition: S. cerevisiae mlh1 rad18 strain growth inhibition; at 50.0 µM; hits give high values
This is part of a sample that, as a whole, favours compounds with a hit. Of some 79,000 tested, about 15% had one in any assay. Calls of active or inactive are those of the source. Rule as the data show it: active = growth inhibition above about 70%; inactive = the rest.
readout: growth inhibition

- Cc1ccccc1-c1nnc(-c2ccc3ccccc3c2)o1: -1.05% (inactive)
- CC1CC(C)(C)C(C[NH-])C1[NH-].[Cl][Pt+2][Cl] (centres undefined): 28.1% (inactive)
- CCCCCCCCCCCCCCCCOc1ccc(S(=O)(=O)N/N=c2/sc(-c3ccccc3Cl)nn2C)cc1C(=O)O: -4.15% (inactive)
- CC(=O)c1c(-c2nc(=S)[nH]c(C)c2C(C)=O)nc(=S)[nH]c1C: 16.8% (inactive)
- Nc1nc(N)c(CCCCc2ccc([N+](=O)[O-])cc2)c(N)n1: -21.3% (inactive)
- O=[N+]([O-])c1ccc(C2ON2C2CCCCC2)cc1 (centres undefined): 5.3% (inactive)
- CC1=NN(c2cc(Cl)c(S(=O)(=O)O)cc2Cl)C(=O)C1N=Nc1ccc(S(=O)(=O)O)cc1 (centres undefined): -0.9% (inactive)
- COc1ccc2nccc(C)c2c1: -0.25% (inactive)
- NC(=O)CN1CC(C2=C(O)CN(CC(N)=O)C2=O)=CC1=O: -9.2% (inactive)
- Brc1c2ccccc2cc2ccccc12: 42.6% (inactive)
- CCCCC1(CC)COC2(CCCCC2)OC1: 6.95% (inactive)
- COc1nc2[nH]ccc2c(=O)[nH]1: -11.1% (inactive)
- CSCC[C@H]1C(=O)N=C(N)N1C(=O)OCc1ccccc1: 12.8% (inactive)
- COc1cccc(C2SCC(=O)N2c2nncs2)c1OC (centres undefined): -9% (inactive)
- O=C(CSc1c2ccccc2nc2ccccc12)Nc1ccccc1-c1ccccc1NC(=O)CSc1c2ccccc2nc2ccccc12: 34.5% (inactive)
- O=C1c2cccc3cc([N+](=O)[O-])cc(c23)C(=O)N1CCNCCNCCNCCN1C(=O)c2cccc3cc([N+](=O)[O-])cc(c23)C1=O: 90.9% (active)
- CSc1nnc(SCc2nn3c(=O)cc(C)nc3s2)s1: 10.6% (inactive)
- COc1cc2c(cc1O)C(Cc1ccccc1)N(C)CC2O (centres undefined): 0% (inactive)
- CC(C)CC(C)Cc1ccncc1 (centres undefined): -5% (inactive)
- CC(C)/C(=N\[N+](C)(C)C)c1ccccc1: 5.15% (inactive)
- O=C1C(O)=C(c2ccccc2)C(=O)N1c1ccccc1: 9.5% (inactive)
- O=S(=O)(N=S(c1ccccc1)c1ccccc1)c1ccccc1: -51.2% (inactive)
- CC(C)CCc1ccc(O)cc1: -5.15% (inactive)
- c1ccc2c(c1)CCC(C1=NC3CCCCC3N1)=N2 (centres undefined): 1.85% (inactive)

* * *

# maps each entry to its growth inhibition
- assay text: NCI Yeast Anticancer Drug Screen. Data for the bub3 strain (AID 167)
- condition: S. cerevisiae bub3 mutant strain, at 50.0 µM, hits give high values
The panel holds about 79,000 compounds, 15% with a hit somewhere; the sample as a whole holds those more often.
readout: growth inhibition (%)

- CCC1CCC2c3c([nH]c4ccccc34)C3C(=O)N(c4ccc(OC)cc4)C(=O)C3C2C1 (configuration not stated): 2.05
- O=C1C(=Cc2ccccc2)C(=O)c2ccccc21: 24.7
- CCN(CC)CC(C)(C)C=O: -7.55
- CCCCN(CCCC)C(=N)c1cccc(OC)c1: 2.75
- C=CCCCCCCCCC(=O)NCCCN1CCOCC1: 85
- COc1cc(C2c3cc4c(cc3OC(Nc3ccccc3)C2C)OCO4)cc(OC)c1OC (configuration not stated): -6.5
- Cc1nc2c(sc(=S)n2-c2ccccc2)c2nc3ccccc3n12: -2.55
- CN(C)CCNc1ccc(CO)c2sc3ccc(O)cc3c(=O)c12: 12.2
- OC1CC2CCCCC2CC1Cl (configuration not stated): -19.1
- CC(C(=O)n1c2ccccc2c2ccccc21)N(c1ccccc1)c1ccccc1 (configuration not stated): -29.4
- CCCCCCCCCCCC(=O)OCCS(=O)(=O)CCOC(=O)CCCCCCCCCCC: 15.4
- CC(C)(C)OC(=O)NC1CC=CCC1NC(=O)OC(C)(C)C (configuration not stated): -17.8

* * *

- assay text: NCI Yeast Anticancer Drug Screen. Data for the rad50 strain (AID 155);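 also: 0% = growth of vehicle-only cultures of the same strain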
- condition: S. cerevisiae rad50 strain growth inhibition; at 50.0 µM; hits give high values
About 79,000 compounds went through this panel and 15% of them were active in at least one assay; those are over-represented in the sample as a whole.
readout: growth inhibition (%)

- CC1(C)CCCC/C1=N\NC(N)=O: -12.6
- Cc1nc(C(N)=S)sc1C(=O)/C=C/c1c(O)ccc2ccccc12: 49.4
- COC(=O)C(CS)NC(=O)CNC(=O)CNC(=O)C(CCCCNC(=O)OCc1ccccc1)NC(=O)CNC(=O)C(CSC(c1ccccc1)(c1ccccc1)c1ccccc1)NC(=O)OCc1ccccc1 (stereo unspecified): -16.2
- COc1ccc(/C(=C/n2ccnc2)C(=O)c2ccc(OC)c(OC)c2)cc1: -41.6
- COc1cccc(-c2cc(=O)c3cc(OC)ccc3[nH]2)c1: -19.8
- CCOC(=O)CNC(=O)C(Cc1cnc[nH]1)NC(=O)OCc1ccccc1 (stereo unspecified): -1.9
- C[n+]1ccccc1/C=C/c1csc2ccccc12: -0.85
- CC(O)C1OC(O)C2OC(C)(C)OC12 (stereo unspecified): 20.1
- CCOC(=O)C[N+]1(C)CCC(O)CC1 (stereo unspecified): 3.15
- N#CCCn1cnc2c(Cl)ncnc21: -10.2
- O=C(O)C(=Cc1ccc(Br)cc1)C(=O)O: 41.5

* * *

# maps each entry to its growth inhibition
- assay text: NCI Yeast Anticancer Drug Screen. Data for the rad50 strain (AID 155);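 also: 0% = growth of vehicle-only cultures of the same strain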
- condition: S. cerevisiae rad50 strain growth inhibition; at 50.0 µM; hits give high values
- Method: Growth inhibition of yeast strains with defined genetic alterations is measured as a screen for potential anti-cancer activity. Selected strains with alterations in DNA damage repair or cell cycle control were exposed to compounds and growth inhibition was measured relative to vehicle treated controls. The strain used in this assay is rad50
About 79,000 compounds went through this panel and 15% of them were active in at least one assay; those are over-represented in the sample as a whole.
readout: growth inhibition (%)

• CC(CCC(=O)CS(C)=O)C1CCC2C3CCC4CCCCC4(C)C3CCC12C (stereo unspecified) = 34.1
• O=S(=O)(Oc1ccc(Cl)cc1)c1cccc(S(=O)(=O)Oc2ccc(Cl)cc2)c1 = 12.8
• O=C1NC(=O)C2CCC12 (stereo unspecified) = 1.95
• CCC1NC(=O)C(NC(=O)c2ncccc2O)C(C)OC(=O)C(c2ccccc2)NC(=O)C2CC(=O)CCN2C(=O)C(Cc2ccccc2)N(C)C(=O)C2CCCN2C1=O (stereo unspecified) = -6.9
• NC(=O)CNCc1ccccc1 = 0.3
• COc1nc2cc3c(cc2n2cccc12)oc1ccccc13 = 11.9
• O=C(O)CNC(=O)CNC(=O)C(CCC(=O)OCc1ccccc1)NC(=O)OCc1ccccc1 (stereo unspecified) = 27.2
• O=C1C=Cn2cc(-c3ccccc3)c(-c3ccccc3)c21 = -13.3
• N[N+]1(CCS(N)(=O)=O)CCOCC1 = -1.95
• C/C(=N\NC(=S)N1CCCC1)c1ccc[nH]1 = -6.55
• CCN(CC)C(=O)Sc1ccc(SC(=O)N(CC)CC)cc1 = -5

* * *

- assay text: NCI Yeast Anticancer Drug Screen. Data for the sgs1 mgt1 strain (AID 161);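 also: 0% = growth of cultures given vehicle only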
- condition: S. cerevisiae sgs1 mgt1 strain, at 50.0 µM, hits give high values
About 79,000 compounds went through this panel and 15% of them were active in at least one assay; those are over-represented in the sample as a whole.
# maps each entry to its growth inhibition
readout: growth inhibition (%)

• O=C1C(O)C(c2ccccc2)c2ccccc2N1c1ccccc1 (stereo not given) = 1.8
• c1ccc(-c2c3ccccc3c(-c3ccccc3)c3ccccc23)cc1 = 6.7
• O=C1CN(c2ccccc2)C(=O)CN1/N=C/c1ccc[nH]1 = -4.9
• C#Cc1cccc(N=Cc2cc(Br)cc(OC)c2O)c1 = 1.3
• Cc1[nH]c(=O)c(C#N)c(C)c1[N+](=O)[O-] = 3.95
• C=C1C(=O)OC2/C=C(\C)C(O)CC(O)C(C)(O)CC(OC(=O)/C(C)=C/C)C12 (stereo not given) = -10.4
• CCCNc1nc2c(s1)c1c(O)c3c(O)c(C)c4c(c32)C(=O)C(C)(O/C=C\C(OC)C(C)C(OC(C)=O)C(C)C(O)C(C)C(O)C(C)/C=C/C=C(/C)C(=O)N1)O4 (stereo not given) = 3.2
• Cc1cc(OC(N)=S)cc(C)c1Cl = 7.6
• COc1ccc(OC)c(C(C)=O)c1 = -94
• C=C(C)C1Cc2c(cc(O)c3c(=O)c4c(oc23)C(O)Oc2cc(OC)c(OC)cc2-4)O1 (stereo not given) = 0.9
